Where do the numbers come from? From patent US20140322307A1.

tested on: T1, Proteinase-Activated Receptor-2 (human, on human keratinocytes) (human, UniProt P55085 37-397)
T1 sequence (looked up): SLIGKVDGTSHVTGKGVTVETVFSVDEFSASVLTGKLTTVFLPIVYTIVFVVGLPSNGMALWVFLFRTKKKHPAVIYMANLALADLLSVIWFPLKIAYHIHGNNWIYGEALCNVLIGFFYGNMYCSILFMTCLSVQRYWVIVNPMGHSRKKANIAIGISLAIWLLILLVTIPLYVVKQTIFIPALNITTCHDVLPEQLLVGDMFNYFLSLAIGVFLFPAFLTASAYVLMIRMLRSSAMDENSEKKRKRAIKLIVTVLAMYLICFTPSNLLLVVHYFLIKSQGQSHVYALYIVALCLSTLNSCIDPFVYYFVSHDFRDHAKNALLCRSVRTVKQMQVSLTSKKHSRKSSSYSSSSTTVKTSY
assay remarks: cell-based or functional assay
Provide the reported PAR-2 activity (calcium fluorescence, human keratinocytes, peptide at 1 mg/mL) of each item.
One number for each entry, in %.

Worked set:
INSERT INTO results (binder, result_value) VALUES
  ('Ac-FMQFIV-NH2 [Ac-L-Phe-L-Met-L-Gln-L-Phe-L-Ile-L-Val-NH2]', 71.4),
  ('Ac-FFWDHV-NH2 [Ac-L-Phe-L-Phe-L-Trp-L-Asp-L-His-L-Val-NH2]', 85.2);

Provide the reported PAR-2 activity (calcium fluorescence, human keratinocytes, peptide at 1 mg/mL) of each entry below, same order.
1. Ac-SFQFIV-NH2 [Ac-L-Ser-L-Phe-L-Gln-L-Phe-L-Ile-L-Val-NH2]
2. Ac-SFQFHS-NH2 [Ac-L-Ser-L-Phe-L-Gln-L-Phe-L-His-L-Ser-NH2]

1: 73.8; 2: 90.1

Provide the reported PAR-2 activity (calcium fluorescence, human keratinocytes, peptide at 1 mg/mL) of each entry below, same order.
1. Ac-SFWFHS-NH2 [Ac-L-Ser-L-Phe-L-Trp-L-Phe-L-His-L-Ser-NH2]
2. Ac-FFQFIV-NH2 [Ac-L-Phe-L-Phe-L-Gln-L-Phe-L-Ile-L-Val-NH2]
3. Ac-FFRDIV-NH2 [Ac-L-Phe-L-Phe-L-Arg-L-Asp-L-Ile-L-Val-NH2]
4. Ac-FMWFHV-NH2 [Ac-L-Phe-L-Met-L-Trp-L-Phe-L-His-L-Val-NH2]
5. Ac-FMWFIV-NH2 [Ac-L-Phe-L-Met-L-Trp-L-Phe-L-Ile-L-Val-NH2]

[73.6, 75.9, 61, 23.5, 79.3]

Provide the reported PAR-2 activity (calcium fluorescence, human keratinocytes, peptide at 1 mg/mL) of each entry below, same order.
1. Ac-SMWFHS-NH2 [Ac-L-Ser-L-Met-L-Trp-L-Phe-L-His-L-Ser-NH2]
2. Ac-FMWFHS-NH2 [Ac-L-Phe-L-Met-L-Trp-L-Phe-L-His-L-Ser-NH2]
3. Ac-FFWFHV-NH2 [Ac-L-Phe-L-Phe-L-Trp-L-Phe-L-His-L-Val-NH2]
4. Ac-FFRFHV-NH2 [Ac-L-Phe-L-Phe-L-Arg-L-Phe-L-His-L-Val-NH2]
5. Ac-FFQDIV-NH2 [Ac-L-Phe-L-Phe-L-Gln-L-Asp-L-Ile-L-Val-NH2]
6. Ac-FFQDIS-NH2 [Ac-L-Phe-L-Phe-L-Gln-L-Asp-L-Ile-L-Ser-NH2]
7. Ac-SMWFHV-NH2 [Ac-L-Ser-L-Met-L-Trp-L-Phe-L-His-L-Val-NH2]
8. Ac-SFWFIS-NH2 [Ac-L-Ser-L-Phe-L-Trp-L-Phe-L-Ile-L-Ser-NH2]

[35.1, 27.8, 32.2, 76.6, 64.1, 73, 86.5, 60.8]
